Test system: HIV-RF-II
Assay: Inhibition of syncytia formation, HIV-RF-II
Settings: Human immunodeficiency virus 1, 18 h, read-out: HIV-RF-II ED100, complete inhibition of syncytia formation
parameterMeasured: EC100
Kindly write the number and append the unit.

# input Given the compound O=C(O)CNS(=O)(=O)c1cc2cc(S(=O)(=O)NCC(=O)O)c3c(O)c2c(O)c1Cc1c(S(=O)(=O)NCC(=O)O)cc2cc(S(=O)(=O)NCC(=O)O)c(c(O)c2c1O)Cc1c(S(=O)(=O)NCC(=O)O)cc2cc(S(=O)(=O)NCC(=O)O)c(c(O)c2c1O)Cc1c(S(=O)(=O)NCC(=O)O)cc2cc(S(=O)(=O)NCC(=O)O)c(c(O)c2c1O)C3 , write its reported EC100.
# output 63 µg/mL

# input Given the compound O=C(O)CCCCCOc1c2c(S(=O)(=O)O)cc3cc(S(=O)(=O)O)c(c(OCCCCCC(=O)O)c13)Cc1c(S(=O)(=O)O)cc3cc(S(=O)(=O)O)c(c(OCCCCCC(=O)O)c3c1OCCCCCC(=O)O)Cc1c(S(=O)(=O)O)cc3cc(S(=O)(=O)O)c(c(OCCCCCC(=O)O)c3c1OCCCCCC(=O)O)Cc1c(S(=O)(=O)O)cc3cc(S(=O)(=O)O)c(c(OCCCCCC(=O)O)c3c1OCCCCCC(=O)O)C2 , write its reported EC100.
# output 32 µg/mL
